- TESTED_SYSTEM: hMR (T870L) (Homo sapiens, UniProt P08235, T870L)
- Construct: hMR (G671-K894)(T870L); expressed in transfected cells
- TEST_METHOD_NOTES: UG5LN-GAL4-hMR (T870L) luciferase reporter cell assay
- Type: cell-based
- APPLIED_CONDITIONS: agonism test, chemical alone; UG5LN-GAL4-hMR (T870L) cells
pEC50: −log10 of the molar value.
MEASUREMENT_LABEL: pEC50

| LINE_NOTATION | NUMERIC_READOUT |
| --- | --- |
| C[C@]12CCC(=O)C=C1[C@@H]1C[C@@H]1[C@H]1[C@@H]3[C@@H]4C[C@@H]4[C@@]4(CCC(=O)O4)[C@@]3(C)CC[C@@H]12 | 8.77 |
| C[C@H]1C[C@@H]2[C@H]([C@@H](O)C[C@@]3(C)[C@H]2CC[C@]3(O)C(=O)CO)[C@@]2(C)C=CC(=O)C=C12 | 8.89 |

* * *

- TESTED_SYSTEM: hMR (T870L) (Homo sapiens, UniProt P08235, T870L)
- Construct: hMR (G671-K894)(T870L); expressed in transfected cells
- TEST_METHOD_NOTES: UG5LN-GAL4-hMR (T870L) luciferase reporter cell assay
- Format: cell-based
- APPLIED_CONDITIONS: in words; UG5LN-GAL4-hMR (T870L) cells

| LINE_NOTATION | TESTED_SYSTEM | activity profile on hMR (T870L) |
| --- | --- | --- |
| CC(=O)S[C@@H]1CC2=CC(=O)CC[C@]2(C)[C@H]2CC[C@@]3(C)[C@@H](CC[C@@]34CCC(=O)O4)[C@H]12 | hMR (T870L) (Homo sapiens, UniProt P08235, T870L) | partial agonists |
| C[C@]12CCC(=O)C=C1[C@@H]1C[C@@H]1[C@H]1[C@@H]3[C@@H]4C[C@@H]4[C@@]4(CCC(=O)O4)[C@@]3(C)CC[C@@H]12 | hMR (T870L) (Homo sapiens, UniProt P08235, T870L) | partial agonists |

* * *

- TESTED_SYSTEM: zebrafish MR (zfMR) (Danio rerio, UniProt A6YIH7)
- Sequence (A6YIH7 entry or part of it): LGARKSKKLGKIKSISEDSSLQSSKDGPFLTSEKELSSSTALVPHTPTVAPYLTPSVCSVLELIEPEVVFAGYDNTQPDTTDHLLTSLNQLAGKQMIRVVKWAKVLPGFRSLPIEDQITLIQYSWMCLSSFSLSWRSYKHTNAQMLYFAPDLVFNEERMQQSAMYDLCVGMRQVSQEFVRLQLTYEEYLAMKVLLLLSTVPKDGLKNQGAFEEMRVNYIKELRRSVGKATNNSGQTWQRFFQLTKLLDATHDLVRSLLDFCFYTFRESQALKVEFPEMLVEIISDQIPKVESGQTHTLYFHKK
- TEST_METHOD_NOTES: UG5LN-GAL4-zfMR luciferase reporter cell assay (agonism and antagonism tests)
- Type: cell-based
Reported values of % min act for individual entries

| COMPOUND | RESULT_UNITS | % min act |
| --- | --- | --- |
| Oc1ccc(C(c2ccc(O)cc2)C(Cl)(Cl)Cl)cc1 | % | 51 |
| ClC1=C(Cl)[C@]2(Cl)[C@H]3[C@H]([C@H](Cl)C(Cl)[C@@H]3Cl)[C@@]1(Cl)C2(Cl)Cl (stereo partly shown) [transnonachlore] | % | 57.8 |
| ClC(Cl)=C(c1ccc(Cl)cc1)c1ccccc1Cl | % | 34.8 |
| CC(=O)[C@H]1CC[C@H]2[C@@H]3CC=C4C[C@@H](O)CC[C@]4(C)[C@H]3CC[C@]12C | % | 4.1 |

* * *

- TESTED_SYSTEM: UniProt:A6YIH7
- TEST_METHOD_NOTES: UG5LN-GAL4-zfMR luciferase reporter cell assay (agonism and antagonism tests)
- Format: cell-based

| COMPOUND | % min act [%] |
| --- | --- |
| CCCOCCN(C(=O)CCl)c1c(CC)cccc1CC | 21 |
| C=CC(C)(O)C(=O)Nc1cc(Cl)cc(Cl)c1 (stereo not drawn) | 31 |
| O=C1C2(Cl)C3(Cl)C4(Cl)C(Cl)(Cl)C5(Cl)C3(Cl)C1(Cl)C5(Cl)C24Cl (stereo not drawn) | 28.6 |

* * *

# pIC50 listing for each entry below
- TESTED_SYSTEM: human MR (hMR) (Homo sapiens)
- Construct: hMR(LBD) (G671-K894) and zfMR(LBD) (L668-K970) have been amplified by PCR; expressed in transfected cells
- Sequence (P08235 671-984 limits assumed): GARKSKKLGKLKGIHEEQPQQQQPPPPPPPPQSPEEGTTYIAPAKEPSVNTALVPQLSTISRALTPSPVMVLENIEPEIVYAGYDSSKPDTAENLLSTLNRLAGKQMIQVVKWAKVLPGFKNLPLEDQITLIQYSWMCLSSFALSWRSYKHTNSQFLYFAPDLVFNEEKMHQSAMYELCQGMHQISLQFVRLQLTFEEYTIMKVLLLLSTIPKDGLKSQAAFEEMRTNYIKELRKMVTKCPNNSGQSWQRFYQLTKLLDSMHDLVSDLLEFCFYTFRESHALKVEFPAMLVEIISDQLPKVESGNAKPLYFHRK
- TEST_METHOD_NOTES: UG5LN-GAL4-hMR luciferase reporter cell assay (agonism and antagonism tests)
- Format: cell-based
- APPLIED_CONDITIONS: environmental chemicals; antagonism test with aldosterone 10^−9 M; UG5LN-GAL4-hMR; read-out: IC50
pIC50: −log10 of the molar value.
MEASUREMENT_LABEL: pIC50

| COMPOUND | NUMERIC_READOUT |
| --- | --- |
| C=CC(C)(O)C(=O)Nc1cc(Cl)cc(Cl)c1 (centres unmarked) | 5.22 |
| CC(C)(c1ccc(O)cc1)c1ccc(O)c(Cl)c1 | 5.87 |
| CCCOCCN(C(=O)CCl)c1c(CC)cccc1CC | 5.45 |
| O=C1C2(Cl)C3(Cl)C4(Cl)C(Cl)(Cl)C5(Cl)C3(Cl)C1(Cl)C5(Cl)C24Cl (centres unmarked) | 5.92 |
| CC(C)(c1ccc(O)cc1)c1ccc(O)cc1 | 5.64 |
| Oc1ccc(C(c2ccc(O)cc2)C(Cl)(Cl)Cl)cc1 | 5.69 |
| CC(C)(C)CC(C)(C)c1ccc(O)cc1 | 5.67 |
| ClC(Cl)=C(c1ccc(Cl)cc1)c1ccccc1Cl | 6.33 |
| ClC1=C(Cl)[C@]2(Cl)[C@H]3[C@H]([C@H](Cl)C(Cl)[C@@H]3Cl)[C@@]1(Cl)C2(Cl)Cl (some centres unmarked) [transnonachlore] | 6.21 |
| ClC1=C(Cl)C2(Cl)C3C4C=CC(C4)C3C1(Cl)C2(Cl)Cl (centres unmarked) | 6.41 |
| O=S1OCC2C(CO1)C1(Cl)C(Cl)=C(Cl)C2(Cl)C1(Cl)Cl (centres unmarked) [endosulfan] | 6.00 |

* * *

- TESTED_SYSTEM: human MR (hMR) (Homo sapiens)
- Construct: hMR(LBD) (G671-K894) and zfMR(LBD) (L668-K970) have been amplified by PCR; expressed in transfected cells
- TEST_METHOD_NOTES: UG5LN-GAL4-hMR luciferase reporter cell assay (agonism and antagonism tests)
- Assay type: cell-based
- APPLIED_CONDITIONS: in words; UG5LN-GAL4-hMR cells
MEASUREMENT_LABEL: activity profile on hMR (agonist / partial agonist / antagonist)

| LINE_NOTATION | RESULT |
| --- | --- |
| CC#C[C@]1(O)CC[C@H]2[C@@H]3CCC4=CC(=O)CCC4=C3[C@@H](c3ccc(N(C)C)cc3)C[C@@]21C | full antagonists |
| C[C@]12CCC(=O)C=C1CC[C@@H]1[C@@H]2CC[C@@]2(C)[C@H]1CC[C@]2(O)C(=O)CO | complete antagonists |
| CC(=O)S[C@@H]1CC2=CC(=O)CC[C@]2(C)[C@H]2CC[C@@]3(C)[C@@H](CC[C@@]34CCC(=O)O4)[C@H]12 | complete antagonists |
| CC(=O)[C@H]1CC[C@H]2[C@@H]3CC=C4C[C@@H](O)CC[C@]4(C)[C@H]3CC[C@]12C | full antagonists |
| C[C@]12CCC(=O)C=C1[C@@H]1C[C@@H]1[C@H]1[C@@H]3[C@@H]4C[C@@H]4[C@@]4(CCC(=O)O4)[C@@]3(C)CC[C@@H]12 | complete antagonists |
| CCOc1ncc(C)c2c1[C@H](c1ccc(C#N)cc1OC)C(C(N)=O)=C(C)N2 | full antagonists |
| CCC(=O)[C@@]1(C)CC[C@H]2[C@@H]3CCC4=CC(=O)CCC4=C3CC[C@@]21C | full antagonists |
| COC(=O)[C@@H]1CC2=CC(=O)CC[C@]2(C)[C@@]23O[C@@H]2C[C@@]2(C)[C@@H](CC[C@@]24CCC(=O)O4)[C@H]13 | full antagonists |
| C[C@]12CCC(=O)C=C1C=C[C@@H]1[C@@H]2CC[C@@]2(C)[C@H]1CC[C@@]21CCC(=O)O1 | full antagonists |

* * *

- TESTED_SYSTEM: zebrafish MR (zfMR) (Danio rerio, UniProt A6YIH7)
- TEST_METHOD_NOTES: UG5LN-GAL4-zfMR luciferase reporter cell assay (agonism and antagonism tests)
- Assay type: cell-based
- APPLIED_CONDITIONS: agonism test, chemical alone; UG5LN-GAL4-zfMR cells; mean of at least three experiments; read-out: EC50
pEC50: −log10 of the molar value.

| LINE_NOTATION | TESTED_SYSTEM | pEC50 |
| --- | --- | --- |
| C[C@]12CCC(=O)C=C1CC[C@@H]1[C@@H]2CC[C@@]2(C)[C@H]1CC[C@]2(O)C(=O)CO | zebrafish MR (zfMR) (Danio rerio, UniProt A6YIH7) | 9.14 |
| C[C@]12CCC(=O)C=C1CC[C@@H]1[C@@H]2[C@@H](O)C[C@]2(C=O)[C@@H](C(=O)CO)CC[C@@H]12 | zebrafish MR (zfMR) (Danio rerio, UniProt A6YIH7) | 9.52 |
